B1: Azoarcus group I ribozyme (parent)
chain: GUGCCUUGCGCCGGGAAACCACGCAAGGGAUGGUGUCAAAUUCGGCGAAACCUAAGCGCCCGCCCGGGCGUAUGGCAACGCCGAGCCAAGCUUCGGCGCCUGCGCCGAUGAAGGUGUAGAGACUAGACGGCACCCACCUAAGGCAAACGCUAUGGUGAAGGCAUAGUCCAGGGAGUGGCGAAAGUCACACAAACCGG

# Variants of: B1
# Method: reverse-splicing fitness (ratio to wild type); higher = more active; in vitro selection; Mg2+ level not given
reverse-splicing fitness listing for selected variants.

{"Changes": "C82A A120G A145U C150U U176G", "reverse-splicing fitness": 0.00531}
{"Changes": "C82G A111G A120C A145C C150G U176C", "reverse-splicing fitness": 0.00886}
{"Changes": "A145C C150U C169G U176G", "reverse-splicing fitness": 0.00658}
{"Changes": "C82G A111G A120U A145U C169A U176A", "reverse-splicing fitness": 0.00206}
{"Changes": "A111G C150G C169A U176C", "reverse-splicing fitness": 0.0111}
{"Changes": "C82G A120G A145C C150G U176G", "reverse-splicing fitness": 0.00333}
{"Changes": "C82G A111G A120U A145U C150G C169G U176A", "reverse-splicing fitness": 0.0025}
{"Changes": "C82G A120G A145G C150U C169A", "reverse-splicing fitness": 0.0266}
{"Changes": "A111C A145U C169U U176A", "reverse-splicing fitness": 0.0258}
{"Changes": "C82G A111C A120C A145G C150U C169A U176G", "reverse-splicing fitness": 0.00796}
{"Changes": "C82U A111G A120U A145C C150A C169A U176G", "reverse-splicing fitness": 0.00186}
